Reported abundance fitness values are given for each entry in this list.
B1: Tudor domain-containing protein 3, residues 554 to 611; numbered along this chain, Q9H7E2 (parent)
chain: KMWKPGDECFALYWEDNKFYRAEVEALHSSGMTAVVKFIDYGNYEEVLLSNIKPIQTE

# Variants of: B1
# assay-explanation: abundance fitness (aPCA) (normalised: wild type 0, dead -1); higher = more abundant; growth selection in yeast, the domain comes from the species named
# recorded-conditions: Homo sapiens
I'd appreciate a reply containing only the number, no unit.

Guide cases for abundance fitness, answers given:
# change, reported
data = [
    ("G6K", -0.416),
    ("P5S", -0.113),
    ("E46Q", -0.055),
]

Now take the following variant into account.
Req: Item under review: S30K . Reported abundance fitness?
Resp: -0.172
